Values from patent US20190241669A1

molecular target: T1, cynomolgus monkey BCMA (cynomolgus monkey, UniProt A0A2K5UD97 1-53); assay: SPR, IgG on chip, cyBCMA analyte
T1 construct: Soluble analyte in SPR; construct not described; also called cyBCMA; Cyno BCMA
T1 sequence (A0A2K5UD97 entry or part of it): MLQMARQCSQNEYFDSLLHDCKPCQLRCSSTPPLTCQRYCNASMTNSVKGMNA
EXPERIMENTAL_READOUT: koff

[[record]]
binder = "COMBO_Rd4_6nM_C12 (antibody, V domains shown, IgG) VH: EVQLLESGGGLVQPGGSLRLSCAASGFTFSSYPMSWVRQAPGKGLEWVSAALGSGGSTYYADSVKGRFTISRDNSKNTLYLQMNSLRAEDTAVYYCARYWPMDSWGQGTLVTVS VL: EIVLTQSPGTLSLSPGERATLSCRASQSVSASYLAWYQQKPGQAPRLLMYDASIRATGIPDRFSGSGSGTDFTLTISRLEPEDFAVYYCQQYMSWPLTFGQGTKVEIK"
value_reported = "0.000486 s⁻¹"


Hi, could you look up koff for each item in my list?
1. COMBO_Rd4_6nM_C02 (antibody, V domains shown, IgG) VH: EVQLLESGGGLVQPGGSLRLSCAASGFTFSSYAMNWVRQAPGKGLEWVSAISDSGGFVYYADSVKGRFTISRDNSKNTLYLQMNSLRAEDTAVYYCARYWPMDSWGQGTLVTVSS VL: EIVLTQSPGTLSLSPGERATLSCRASQSVSSSYLAWYQQKPGQAPRLLMYDASIRATGIPDRFSGSGSGTDFTLTISRLEPEDFAVYYCQQYEFWPLTFGQGTKVEIK
2. C01_Rd4_0.6nM_C09 (antibody, V domains shown, IgG) VH: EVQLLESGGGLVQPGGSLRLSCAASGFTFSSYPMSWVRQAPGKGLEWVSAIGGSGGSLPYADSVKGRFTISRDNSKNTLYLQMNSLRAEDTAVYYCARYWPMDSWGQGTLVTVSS VL: EIVLTQSPGTLSLSPGERATLSCRASQSVSSLFLAWYQQKPGQAPRLLIYDASSRAPGIPDRFSGSGSGTDFTLTISRLEPEDFAVYYCQQYSAWPLTFGQGTKVEIK

1: 0.00136 s⁻¹; 2: 0.00936 s⁻¹
